# reported % max; entries follow
- target-entity: T1, LRP1 CR3-5 (human)
- T1 construct: range 852-973; also called L1 CR3-5
- T1 sequence (Q07954 852-973): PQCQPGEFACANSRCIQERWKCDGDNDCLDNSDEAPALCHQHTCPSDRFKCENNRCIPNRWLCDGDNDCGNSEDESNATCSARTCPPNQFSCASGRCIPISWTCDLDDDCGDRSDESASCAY
- test-description: solid-phase assay; OD at the highest ligand concentration as percent of the highest OD of all ligands
- Description: Solid phase binding assays-Purified, refolded CR protein (1 μg) was bound to Nunc Maxisorp™ 96-well plates in TBS pH 8 supplemented with 5 mM CaCl₂ (TBSC) overnight at 4° C. Wells were washed with TBSC and then blocked with TBSC containing 2% bovine serum albumin (BSA). […] Control wells contained no added ligand. […] Absorption at 450 nm was measured with a microplate spectrophotometer (Molecular Devices). […]
measured-attribute: % max (%)

[[record]]
binder = "RAP d3 forward mutant E251K (ligand, The paragraph gives only the position; the change E251K follows from the mutagenic primers; not shown: N-terminal hexahistidine and S-peptide tags of pET30(+)a) LDRLRRVSHQGYSTEAEFEEPRVIDLWDLAQSANLTDKELEAFREELKHFKAKIEKHNHYQKQLEIAHEKLRHAESVGDGERVSRSREKHALLEGRTKELGYTVKKHLQDLSGRISRAR"
reading_unit = "%"
recorded_value = 100

[[record]]
binder = "RAP d3 forward mutant K256A, K270E (ligand, also called K270E in combination with K256A; not shown: N-terminal hexahistidine and S-peptide tags of pET30(+)a) LDRLRRVSHQGYSTEAEFEEPRVIDLWDLAQSANLTDKELEAFREELKHFEAKIEAHNHYQKQLEIAHEELRHAESVGDGERVSRSREKHALLEGRTKELGYTVKKHLQDLSGRISRAR"
reading_unit = "%"
recorded_value = 2

[[record]]
binder = "MegaRAP1 d3 double revertant K251E, E270K (ligand, not shown: N-terminal hexahistidine and S-peptide tags of pET30(+)a) LDRLRRVSHQGYTTEAKFEEPRVIDLWDLAQSANLTDKELEAFREELKYFEAKIEAHNHYQKQLEIAHEKLRHAESVGDGERVSRSREKHALLEGRTKELGYTVKKHLQDLSGRISRAR"
reading_unit = "%"
recorded_value = 16

[[record]]
binder = "MegaRAP1 d3 double revertant A256K, E270K (ligand, not shown: N-terminal hexahistidine and S-peptide tags of pET30(+)a) LDRLRRVSHQGYTTEAKFEEPRVIDLWDLAQSANLTDKELEAFREELKYFKAKIEKHNHYQKQLEIAHEKLRHAESVGDGERVSRSREKHALLEGRTKELGYTVKKHLQDLSGRISRAR"
reading_unit = "%"
recorded_value = 93


Origin of the recorded values: patent US20100210517A1
